Cited source for all entries: paper PMC7982320

Molecular target: UniProt:Q9Y6L6
Sequence (Q9Y6L6 whole entry): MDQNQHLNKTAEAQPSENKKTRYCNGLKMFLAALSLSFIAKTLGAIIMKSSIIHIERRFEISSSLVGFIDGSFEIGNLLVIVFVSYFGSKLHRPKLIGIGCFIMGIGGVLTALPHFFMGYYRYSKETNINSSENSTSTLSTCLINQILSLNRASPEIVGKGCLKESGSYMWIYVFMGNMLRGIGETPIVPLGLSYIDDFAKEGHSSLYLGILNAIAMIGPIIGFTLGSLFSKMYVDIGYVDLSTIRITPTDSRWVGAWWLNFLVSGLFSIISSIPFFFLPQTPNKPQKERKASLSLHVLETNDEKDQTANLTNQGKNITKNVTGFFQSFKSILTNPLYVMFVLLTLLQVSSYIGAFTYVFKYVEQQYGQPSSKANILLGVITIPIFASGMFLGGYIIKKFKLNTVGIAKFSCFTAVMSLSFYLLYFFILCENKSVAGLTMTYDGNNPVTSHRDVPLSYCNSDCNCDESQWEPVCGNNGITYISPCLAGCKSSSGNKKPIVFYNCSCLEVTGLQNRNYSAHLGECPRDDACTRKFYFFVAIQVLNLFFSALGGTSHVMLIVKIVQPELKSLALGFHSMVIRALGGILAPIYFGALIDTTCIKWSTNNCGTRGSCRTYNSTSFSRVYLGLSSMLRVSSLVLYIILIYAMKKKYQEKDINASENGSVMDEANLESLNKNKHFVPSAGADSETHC
Experiment: Transporter inhibition, uptake assay
Type: in vitro ADME
Conditions: OATP1B1 UPT; brackets: 95% confidence interval
MEASURED_ENDPOINT: IC50
Dear colleague, please send the value followed by its unit.

Query :: Kindly state the measured IC50 obtained for CC1=N[C@]2(C(=O)CO)[C@@H](C[C@H]3[C@@H]4C[C@@H](O)C5=CC(=O)C=C[C@]5(C)[C@H]4[C@@H](O)C[C@@]32C)O1 [6β‐OH‐21‐desDFZ, 6β‐Hydroxy‐21‐desacetyl deflazacort] with UniProt:Q9Y6L6.
Result :: 36.7 µM

====

System: CYP1A2
Test: in vitro
Assay type: in vitro ADME, human
Conditions: human, CYP1A2 enzyme activity fold induction, donor one, 100 µM
MEASURED_ENDPOINT: fold induction at 48 h, 100 µM
No unit in the answer, please; the number alone is enough.

Query :: Consider the molecule COc1ccc2[nH]c([S+]([O-])Cc3ncc(C)c(OC)c3C)nc2c1 (stereo not shown) [Omeprazole, reference compound] and give its measured fold induction at 48 h, 100 µM.
Result :: 3.55
